# tested on: T1, canine NGF tagged at the C-terminus with the Flag tag (canine, UniProt A0A8I3PYI3 122-241)
# T1 construct: mature; Expressed with baculovirus technology; also called feline NGF (processed form identical)
# T1 sequence (A0A8I3PYI3 entry or part of it): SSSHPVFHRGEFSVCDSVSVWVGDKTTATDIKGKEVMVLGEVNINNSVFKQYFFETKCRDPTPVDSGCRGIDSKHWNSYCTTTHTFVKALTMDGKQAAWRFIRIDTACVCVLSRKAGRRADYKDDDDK
# protocol text: SPR off-rate screen, Fab-SASA on BSA chip
outcome measure: koff
Lab note: write values as number then unit, every time.

binder	koff
felinized clone 101 Fab-SASA variant S56T (VL) (Fab, V domains shown, not shown: small tags and cut ends) VH: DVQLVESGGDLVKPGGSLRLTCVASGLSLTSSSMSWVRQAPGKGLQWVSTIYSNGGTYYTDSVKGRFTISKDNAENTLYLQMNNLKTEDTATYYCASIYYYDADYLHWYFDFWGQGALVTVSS VL: EIQMTQSPTSLSASVGDRVTITCRASEGISNNLSWYQQTPGKAPKLLIYATSNLHTGVPSRFSGSGSGTDFTLTISSLQPEDFATYYCQQGYKWPLTFGGGTKLEITR	0.000714 s⁻¹
felinized clone 101 Fab-SASA variant F112P (VH) (Fab, V domains shown, not shown: small tags and cut ends) VH: DVQLVESGGDLVKPGGSLRLTCVASGLSLTSSSMSWVRQAPGKGLQWVSTIYSNGGTYYTDSVKGRFTISKDNAENTLYLQMNNLKTEDTATYYCASIYYYDADYLHWYFDPWGQGALVTVSS VL: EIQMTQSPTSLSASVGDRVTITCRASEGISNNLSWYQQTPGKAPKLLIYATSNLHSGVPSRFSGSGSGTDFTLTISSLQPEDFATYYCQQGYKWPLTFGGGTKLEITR	0.000552 s⁻¹

Attention now shifts to the item below.
Input: # lookup: koff of felinized clone 101 Fab-SASA variant N53K (VL) (Fab, V domains shown, not shown: small tags and cut ends) VH: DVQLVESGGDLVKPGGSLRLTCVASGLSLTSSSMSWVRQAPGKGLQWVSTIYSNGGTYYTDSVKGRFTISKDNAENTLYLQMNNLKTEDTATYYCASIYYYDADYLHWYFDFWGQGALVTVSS VL: EIQMTQSPTSLSASVGDRVTITCRASEGISNNLSWYQQTPGKAPKLLIYATSKLHSGVPSRFSGSGSGTDFTLTISSLQPEDFATYYCQQGYKWPLTFGGGTKLEITR
Output: 0.000596 s⁻¹
